- Tested on: PKAcat-GFP
- experimental.details: forskolin induced PKAcat-GFP translocation quantified by extraction procedure, FLIPR
- Type: cell-based
- run.parameters: Homo sapiens, 0.25 h; forskolin 15 min, extraction Formalin 0.2%/Triton-x 0.2%, FLIPR; read-out: ED50 of forskolin dose response in PKAcat-GFP assay
- From the text: Upon increase in cellular cAMP (e.g. by stimulation of adenylate cyclase activity by forskolin) PKAcat dissociates from its regulatory subunits and spots “dissolves” into the cytosol. The total GFP intensity measured after removing cytosolic PKAcat-GFP through the extraction procedure is indicative of the level of non-activated, non-dissociated PKAcat. In this example the extraction procedure is used to quantify a forskolin dose response in a PKAcat-GFP assay. […]
pEC50: −log10 of the molar value.
measure.name: pEC50

smiles.representation | assay.value
C=C[C@@]1(C)CC(=O)[C@]2(O)[C@@]3(C)[C@@H](O)CCC(C)(C)[C@@H]3[C@H](O)[C@H](OC(C)=O)[C@@]2(C)O1 | ~5.52

* * *

- study.target: PDE4A4 (Homo sapiens, UniProt P27815)
- Sequence (P27815 whole entry): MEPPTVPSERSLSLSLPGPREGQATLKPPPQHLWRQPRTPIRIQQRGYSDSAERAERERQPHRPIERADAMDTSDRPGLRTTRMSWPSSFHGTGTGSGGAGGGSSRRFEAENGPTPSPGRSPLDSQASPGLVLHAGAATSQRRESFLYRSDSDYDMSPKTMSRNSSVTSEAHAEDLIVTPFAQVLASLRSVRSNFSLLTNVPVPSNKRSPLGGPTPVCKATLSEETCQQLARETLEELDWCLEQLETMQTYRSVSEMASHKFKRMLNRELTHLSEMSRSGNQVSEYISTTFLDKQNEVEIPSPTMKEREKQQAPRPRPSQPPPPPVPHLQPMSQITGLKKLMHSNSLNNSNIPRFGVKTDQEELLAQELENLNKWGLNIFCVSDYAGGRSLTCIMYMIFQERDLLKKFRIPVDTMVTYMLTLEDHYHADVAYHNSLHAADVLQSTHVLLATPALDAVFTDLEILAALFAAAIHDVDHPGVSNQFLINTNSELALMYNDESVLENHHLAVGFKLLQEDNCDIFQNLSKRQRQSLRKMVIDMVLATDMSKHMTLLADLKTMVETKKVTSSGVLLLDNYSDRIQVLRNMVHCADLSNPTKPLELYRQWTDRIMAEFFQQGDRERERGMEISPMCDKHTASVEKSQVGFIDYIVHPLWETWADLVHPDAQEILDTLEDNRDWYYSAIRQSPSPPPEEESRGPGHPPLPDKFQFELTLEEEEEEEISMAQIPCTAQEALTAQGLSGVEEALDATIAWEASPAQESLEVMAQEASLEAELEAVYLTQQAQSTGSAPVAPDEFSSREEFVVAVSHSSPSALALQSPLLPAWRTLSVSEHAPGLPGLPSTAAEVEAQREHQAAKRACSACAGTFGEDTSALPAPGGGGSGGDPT
- experimental.details: formation of dense aggregates (spots) of PDE4A4 in transfected CHO cells
- run.parameters: read-out: EC50 for formation of dense PDE4A4 aggregates (spots) in the cytoplasm
pEC50: −log10 of the molar value.
measure.name: pEC50

smiles.representation | study.target | assay.value
O=c1c2cccnc2n(-c2cccc([N+](=O)[O-])c2)c(=O)n1Cc1ccncc1 | PDE4A4 (Homo sapiens, UniProt P27815) | 7.70
